ASSAY_SYSTEM: human receptor tyrosine kinase like orphan receptor 1 (ROR1) (human, UniProt Q01973 30-937)
Sequence (Q01973 30-937): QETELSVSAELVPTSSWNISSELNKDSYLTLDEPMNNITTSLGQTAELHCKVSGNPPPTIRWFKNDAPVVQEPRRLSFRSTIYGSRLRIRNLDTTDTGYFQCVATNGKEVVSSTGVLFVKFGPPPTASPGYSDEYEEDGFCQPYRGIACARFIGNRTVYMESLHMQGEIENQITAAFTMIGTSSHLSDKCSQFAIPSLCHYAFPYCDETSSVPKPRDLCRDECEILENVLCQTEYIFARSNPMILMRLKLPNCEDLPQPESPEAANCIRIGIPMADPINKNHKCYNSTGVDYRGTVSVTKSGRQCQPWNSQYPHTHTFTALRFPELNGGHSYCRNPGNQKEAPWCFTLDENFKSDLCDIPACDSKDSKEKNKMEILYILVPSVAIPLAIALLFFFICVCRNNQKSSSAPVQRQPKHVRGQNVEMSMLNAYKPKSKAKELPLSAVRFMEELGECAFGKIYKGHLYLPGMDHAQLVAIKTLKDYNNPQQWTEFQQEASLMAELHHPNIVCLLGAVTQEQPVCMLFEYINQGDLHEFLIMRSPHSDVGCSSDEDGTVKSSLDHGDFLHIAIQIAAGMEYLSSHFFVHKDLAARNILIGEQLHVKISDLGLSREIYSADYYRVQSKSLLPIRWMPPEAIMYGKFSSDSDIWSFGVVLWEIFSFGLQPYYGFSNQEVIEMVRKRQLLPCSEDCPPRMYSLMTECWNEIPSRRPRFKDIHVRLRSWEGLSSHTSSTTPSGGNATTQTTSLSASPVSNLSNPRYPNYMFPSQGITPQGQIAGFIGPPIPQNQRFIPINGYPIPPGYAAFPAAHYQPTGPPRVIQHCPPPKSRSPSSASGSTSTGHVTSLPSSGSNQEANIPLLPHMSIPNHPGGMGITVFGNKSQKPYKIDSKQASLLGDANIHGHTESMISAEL
PROCEDURE_TEXT: cell-based or functional assay
ASSAY_ENDPOINT: IC50, cell viability (CellTiter-Glo, 72 h), HBL-1 cells (nM)
Report only the number, with the unit nM understood.

Entry ADC-A (antibody, human IgG1, kappa, V domains shown, MC-VC-PAB-MMAE bonded via cysteine residues of the antibody (chain and positions not stated); MC-VC-PAB-MMAE bonded via cysteine residues of the antibody (chain and positions not stated); DAR 3.89 to 5.09, Antibody-drug conjugate of Ab1; also called Ab1-MC-VC-PAB-MMAE) VH: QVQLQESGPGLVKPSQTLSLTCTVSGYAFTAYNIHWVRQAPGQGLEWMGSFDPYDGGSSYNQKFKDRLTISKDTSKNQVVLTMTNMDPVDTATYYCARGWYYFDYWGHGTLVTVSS VL: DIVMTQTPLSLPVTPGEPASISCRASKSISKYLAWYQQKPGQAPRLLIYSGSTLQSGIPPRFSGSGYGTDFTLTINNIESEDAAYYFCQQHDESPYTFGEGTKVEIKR needs its IC50, cell viability (CellTiter-Glo, 72 h), HBL-1 cells filled in; supply it.
118
